Values compiled from paper PMC2909451.

Give measured pKi for each item. Keep answers brief.
# Experimental System: human apical sodium-dependent transporter (SLC10A2, ASBT) (Homo sapiens, UniProt Q12908)
# Sequence (Q12908 whole entry): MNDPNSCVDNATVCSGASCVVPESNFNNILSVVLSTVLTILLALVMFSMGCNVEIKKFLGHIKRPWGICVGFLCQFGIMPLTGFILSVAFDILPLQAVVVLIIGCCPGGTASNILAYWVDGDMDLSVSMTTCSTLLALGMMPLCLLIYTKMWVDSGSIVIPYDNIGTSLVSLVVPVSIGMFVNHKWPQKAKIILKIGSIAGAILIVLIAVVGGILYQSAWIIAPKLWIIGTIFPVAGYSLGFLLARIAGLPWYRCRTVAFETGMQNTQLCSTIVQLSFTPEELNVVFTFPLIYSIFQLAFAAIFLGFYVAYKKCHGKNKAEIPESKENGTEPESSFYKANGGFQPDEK
# Assay Overview: ASBT cis-inhibition of taurocholate uptake in ASBT-MDCK cells
# Measurement Parameters: Ki, inhibitor concentration range 0-10 μM; mean±S.E.
Would you please state pKi, meaning minus log10 of the concentration in mol/L, as a bare number?

Query block: Fill in the blank: the reported pKi of CC(C)OC(=O)CCC/C=C\C[C@@H]1[C@@H](CC[C@@H](O)CCc2ccccc2)[C@H](O)C[C@@H]1O [Latanoprost, latanoprost] is ____.
Result block: 4.91

Query block: What value of measured pKi is listed for COc1ccc2c(c1)c(CC(=O)O)c(C)n2C(=O)c1ccc(Cl)cc1 [Indomethacin, indomethacin] ?
Result block: 4.28

Query block: What value of pKi has been recorded for this entry: O=C(O)C[C@H](O)C[C@H](O)/C=C/c1c(C2CC2)nc2ccccc2c1-c1ccc(F)cc1 [Pitavastatin]
Result block: 4.53

Query block: // query pKi value for entry COC(=O)C1=C(C)NC(C)=C(C(=O)OC(C)C)C1c1cccc2nonc12 (centres unmarked) [Isradipine, isradipine]
Result block: 4.27

Query block: pKi for CC(C)c1nc(N(C)S(C)(=O)=O)nc(-c2ccc(F)cc2)c1/C=C/[C@@H](O)C[C@@H](O)CC(=O)O [Rosuvastatin] ?
Result block: 4.33
